Catalogue of molecules with associated IC50
# Tested on: HCC1428
# testDescription: CTG assay for proliferation inhibition of cell lines
# Assay type: cell-based
# appliedConditions: HCC1428, 7 days, CellTiter Glo
# Method: The assay was conducted on either 384-well plates or 96-well plates. The procedures are as follows: The cell suspensions were added to 384- or 96-well plates (384-well plate: 50 μL; 96-well plate: 100 μL) except for peripheral wells. […] The incubated plates were placed into Victor NIVO reader plates, and the pharmacodynamic inhibition curves were plotted and IC50 values were calculated using XLFit.

- molecule: "CC(C)S(=O)(=O)N1CCC(c2cc(S(=O)(=O)NC3(C#N)CC3)cc3c(-c4nnc(C(F)F)s4)nn(C)c23)=C(CO)C1 [Compound 36]"
  IC50 (µM): 0.0978
- molecule: "CC(C)S(=O)(=O)N1CC=C(c2cc(S(=O)(=O)NC3(C#N)CC3)cc3c(-c4nnc(C(F)F)s4)nn(C)c23)C(F)(F)C1 [Compound 67]"
  IC50 (µM): 0.203
- molecule: "CC(C)S(=O)(=O)N1CCC(c2cc(S(=O)(=O)NC3(C#N)CC3)cc3c(-c4nnc(C(F)(F)F)s4)nn(C)c23)=C(C(N)=O)C1 [Compound 55]"
  IC50 (µM): 0.208
- molecule: "CC(C)S(=N)(=O)N1CC=C(c2cc(S(=O)(=O)NC3(C#N)CC3)cc3c(-c4nnc(C(F)F)s4)nn(C)c23)CC1 (stereo not shown) [Compound 33]"
  IC50 (µM): 0.616
- molecule: "COCCn1nc(-c2nnc(C(F)F)s2)c2cc(S(=O)(=O)NC3(C#N)CC3)cc(N3CCN(S(=O)(=O)C(C)C)CC3)c21 [Compound 2]"
  IC50 (µM): 0.413
- molecule: "CC(C)[S+]([O-])c1ccc(-c2cc(S(=O)(=O)NC3(C#N)CC3)cc3c(-c4nnc(C(F)(F)F)s4)nn(C)c23)cn1 (stereo not shown) [Compound 46]"
  IC50 (µM): 1.7
- molecule: "CC(C)S(=O)(=O)N1CCC(c2cc(S(=O)(=O)NC3(C#N)CC3)cc3c(-c4nnc(C(F)F)s4)nn(C)c23)=C(CN(C)C)C1 [Compound 71]"
  IC50 (µM): 0.342
- molecule: "CC(C)S(=O)(=O)N1CC=C(c2cc(S(=O)(=O)NC3(C#N)CC3)cc3c(-c4nnc(C(F)(F)F)s4)nn(C)c23)CC1 [Compound 15]"
  IC50 (µM): 0.117
- molecule: "CC(C)S(=O)(=O)N1CC=C(c2cc(S(=O)(=O)NC3(C#N)CC3)cc3c(-c4nnc(C(F)F)s4)nn(CCN(C)C)c23)CC1 [Compound 26]"
  IC50 (µM): 0.0865
- molecule: "Cn1nc(-c2nnc(C(F)(F)F)s2)c2cc(S(=O)(=O)NC3(C#N)CC3)cc(C3=CCN(S(=O)(=O)c4ccccc4)CC3)c21 [Compound 50]"
  IC50 (µM): 2.33
- molecule: "CC(C)S(=O)(=O)N1CC=C(c2cc(S(=O)(=O)NC3(C#N)CC3)cc3c(-c4noc(C(F)(F)F)n4)nn(C)c23)CC1 [Compound 53]"
  IC50 (µM): 0.207
- molecule: "Cn1nc(-c2nnc(C(F)F)s2)c2cc(S(=O)(=O)NC3(C#N)CC3)cc(C3=CCN(S(=O)(=O)C4CNC4)CC3)c21 [Compound 20]"
  IC50 (µM): 3.02
- molecule: "CC(C)S(=O)(=O)N1CC=C(c2cc(S(=O)(=O)NC3(CF)CC3)cc3c(-c4nnc(C(F)F)s4)nn(C)c23)CC1 [Compound 18]"
  IC50 (µM): 0.215
